Test system: HT-29
test: cells
runConditions: Homo sapiens, HT-29, 48 h
Description: Antiproliferative activity against human HT-29 cells after 48 hrs by MTT assay
Provide the recorded IC50 for the entries that follow.
Please respond with the number in µM and leave the unit unwritten.

[ask] Identify the reported IC50 for the following entry. COc1cccc2c1C(=O)c1c(O)c3c(c(O)c1C2=O)C[C@@](O)(C(=O)CO)C[C@@H]3O[C@H]1C[C@H](N)[C@H](O)[C@H](C)O1
[reply] 2.24

[ask] # return recorded IC50 for entry O=C(O)Cn1nnc(-c2cn(-c3ccccc3)nc2-c2ccccc2)n1
[reply] 86.3

[ask] # return recorded IC50 for entry O=C(O)Cn1nnc(-c2cn(-c3ccccc3)nc2-c2ccc(Cl)cc2)n1
[reply] 6.43

* * *

Test system: MCF7
test: Growth inhibition of human MCF7 cells
Assay type: functional
I'd be grateful if you could share measured GI50 for these entries.

[ask] Give a short answer stating reported GI50 for CN(C)C(=O)NC(c1ccc(O)cc1)n1cnnn1 (stereo unspecified) .
[reply] 8.2 to 41 µM

[ask] Please report the measured GI50 for NC(=S)NNC(c1ccccc1)n1cnnn1 (stereo unspecified)
[reply] 5.2 to 8.1 µM

[ask] Specify measured GI50 for NC(=S)NNC(c1ccc(O)cc1)n1cnnn1 (stereo unspecified) .
[reply] 5.2 to 29.8 µM

[ask] // fetch GI50 given entry CN(C)C(=O)NC(c1ccccc1)n1cnnn1 (stereo unspecified)
[reply] 8.2 to 41 µM

[ask] Answer with reported GI50 of CN(C)C(=O)NC(c1ccc(Cl)cc1)n1cnnn1 (stereo unspecified)
[reply] 8.2 to 41 µM

[ask] Supply reported GI50 belonging to this molecule: NC(=S)NNC(c1ccc(Cl)cc1)n1cnnn1 (stereo unspecified)
[reply] 5.2 to 29.8 µM

* * *

System: HepG2
test: Growth inhibition of human HepG2 cells
Assay type: functional
measurementType: GI50

[ask] Provide measured GI50 value, entry: CN(C)C(=O)NC(c1ccccc1)n1cnnn1 (stereo unspecified)
[reply] 8.2 to 41 µM

[ask] Query GI50 for NC(=S)NNC(c1ccc(O)cc1)n1cnnn1 (stereo unspecified)
[reply] 5.2 to 29.8 µM

[ask] Answer with the recorded GI50 for the compound listed here: NC(=S)NNC(c1ccc(Cl)cc1)n1cnnn1 (stereo unspecified)
[reply] 5.2 to 29.8 µM

[ask] Name the recorded GI50 of the item CN(C)C(=O)NC(c1ccc(Cl)cc1)n1cnnn1 (stereo unspecified) in your answer.
[reply] 8.2 to 41 µM

[ask] Report GI50 for NC(=S)NNC(c1ccccc1)n1cnnn1 (stereo unspecified)
[reply] 5.2 to 8.1 µM

[ask] Return GI50 (reported value) for this compound: CN(C)C(=O)NC(c1ccc(O)cc1)n1cnnn1 (stereo unspecified)
[reply] 8.2 to 41 µM

* * *

Would you kindly list GI50 for each of these compounds?
Test system: PANC-1
test: Cytotoxicity against human PANC1 cells
Format: functional

[ask] State GI50 on PANC-1. Entry: O=C(O)c1cn(C2CC2)c2cc(N3CCN(C(=O)CCSc4nnnn4-c4ccccc4)CC3)c(F)cc2c1=O
[reply] 85 to 1150 nM

[ask] Give PANC-1 GI50 for the following compound: CCn1cc(C(=O)O)c(=O)c2cnc(N3CCN(C(=O)CCSc4nnnn4-c4ccc(OC)c(OC)c4OC)CC3)nc21
[reply] 66 to 1300 nM

[ask] Look up PANC-1 data: GI50 of CCn1cc(C(=O)O)c(=O)c2cnc(N3CCN(C(=O)CCSc4nnnn4-c4ccc(F)c(F)c4F)CC3)nc21 , then report it.
[reply] 66 to 1300 nM

[ask] Report GI50 from PANC-1 testing of CCn1cc(C(=O)O)c(=O)c2cnc(N3CCN(C(=O)CCSc4nnnn4-c4ccc(C(F)(F)F)cc4)CC3)nc21
[reply] 66 to 1300 nM

[ask] Tell me its GI50 on PANC-1: CCn1cc(C(=O)O)c(=O)c2cnc(N3CCN(C(=O)CCSc4nnnn4-c4ccc(Br)cc4)CC3)nc21
[reply] 70 nM

[ask] # return GI50 of CC/C(=C(\c1ccccc1)c1ccc(OCCN(C)C)cc1)c1ccccc1 (system: PANC-1)
[reply] 150 nM

[ask] Provide measured GI50 on PANC-1 for O=C(O)c1cn(C2CC2)c2cc(N3CCN(C(=O)CCSc4nnnn4-c4ccc(F)c(F)c4F)CC3)c(F)cc2c1=O please.
[reply] 66 to 1300 nM

* * *

Tested on: PANC-1
test: Cytotoxicity against human PANC1 cells
Type: functional
measurementType: GI50

[ask] Please report the measured GI50 for COc1cc(-n2nnnc2SCCC(=O)N2CCN(c3cc4c(cc3F)c(=O)c(C(=O)O)cn4C3CC3)CC2)cc(OC)c1OC
[reply] 66 to 1300 nM

[ask] Quickly give me recorded GI50 for O=C(O)c1cn(C2CC2)c2cc(N3CCN(C(=O)CCSc4nnnn4-c4ccc(Br)cc4)CC3)c(F)cc2c1=O
[reply] 66 to 1300 nM

[ask] Return reported GI50. Input molecule: O=C(O)c1cn(C2CC2)c2cc(N3CCN(C(=O)CCSc4nnnn4-c4ccc(C(F)(F)F)cc4)CC3)c(F)cc2c1=O
[reply] 66 to 1300 nM

[ask] For the molecule O=C(O)c1cn(C2CC2)c2cc(N3CCN(C(=O)CCSc4nnnn4Cc4ccccc4)CC3)c(F)cc2c1=O , give its measured GI50 value.
[reply] 85 to 1150 nM

* * *

System: SiHa
test: Cytotoxicity against human SiHa cells
Type: functional
measurementType: GI50

[ask] Provide GI50 value for the following compound: CCn1cc(C(=O)O)c(=O)c2cnc(N3CCN(C(=O)CCSc4nnnn4-c4ccc(OC)c(OC)c4OC)CC3)nc21
[reply] 66 to 1300 nM

[ask] Hello, please tell me recorded GI50 for this one: CCn1cc(C(=O)O)c(=O)c2cnc(N3CCN(C(=O)CCSc4nnnn4-c4ccc(C(F)(F)F)cc4)CC3)nc21
[reply] 66 to 1300 nM

[ask] Supply GI50 value. Item: O=C(O)c1cn(C2CC2)c2cc(N3CCN(C(=O)CCSc4nnnn4-c4ccc(Br)cc4)CC3)c(F)cc2c1=O
[reply] 66 to 1300 nM

[ask] Identify measured GI50 corresponding to COc1cc(-n2nnnc2SCCC(=O)N2CCN(c3cc4c(cc3F)c(=O)c(C(=O)O)cn4C3CC3)CC2)cc(OC)c1OC
[reply] 66 to 1300 nM

[ask] Dear colleague, please send me the reported GI50 for CCn1cc(C(=O)O)c(=O)c2cnc(N3CCN(C(=O)CCSc4nnnn4-c4ccc(Br)cc4)CC3)nc21 when you can.
[reply] 80 nM

[ask] Give GI50 for the following compound: CCn1cc(C(=O)O)c(=O)c2cnc(N3CCN(C(=O)CCSc4nnnn4-c4ccc(F)c(F)c4F)CC3)nc21
[reply] 66 to 1300 nM

[ask] Please report the measured GI50 for O=C(O)c1cn(C2CC2)c2cc(N3CCN(C(=O)CCSc4nnnn4-c4ccc(C(F)(F)F)cc4)CC3)c(F)cc2c1=O
[reply] 66 to 1300 nM

[ask] Quick one: give measured GI50 for O=C(O)c1cn(C2CC2)c2cc(N3CCN(C(=O)CCSc4nnnn4-c4ccccc4)CC3)c(F)cc2c1=O
[reply] 85 to 1150 nM

[ask] Check the records and state GI50 for O=C(O)c1cn(C2CC2)c2cc(N3CCN(C(=O)CCSc4nnnn4-c4ccc(F)c(F)c4F)CC3)c(F)cc2c1=O
[reply] 66 to 1300 nM

[ask] Provide GI50 value for the following compound: O=C(O)c1cn(C2CC2)c2cc(N3CCN(C(=O)CCSc4nnnn4Cc4ccccc4)CC3)c(F)cc2c1=O
[reply] 85 to 1150 nM

[ask] Consider the compound CC/C(=C(\c1ccccc1)c1ccc(OCCN(C)C)cc1)c1ccccc1 . State its measured GI50.
[reply] 120 nM

* * *

Tested on: HT-29
test: cells
runConditions: Homo sapiens, HT-29, 48 h
Could you please report measured IC50 for the items listed next?

[ask] Fill in: IC50 on HT-29, entry Cc1ccc(-c2nn(-c3ccccc3)cc2-c2nnn(CC(=O)O)n2)cc1
[reply] 7.23 to 48.3 µM

[ask] Provide measured IC50 on HT-29 for O=C(O)Cn1nnc(-c2cn(-c3ccccc3)nc2-c2ccccc2Cl)n1 please.
[reply] 6.43 to 18.2 µM

[ask] Report IC50 on HT-29 for this entry: COc1ccccc1-c1nn(-c2ccccc2)cc1-c1nnn(CC(=O)O)n1
[reply] 7.23 to 48.3 µM

[ask] Return reported IC50 for target or system HT-29, item COc1ccc(-c2nn(-c3ccccc3)cc2-c2nnn(CC(=O)O)n2)cc1 .
[reply] 7.23 to 48.3 µM

Data credit: ChEMBL document CHEMBL4364264
